Reported RP-LC retention time values follow for various compounds
Test: gradient 5% acetonitrile 3 min, to 50% in 2 min, to 85% in 15 min, held 3 min, 100 µL/min
Conditions: column: Zorbax Extend-C18 2.1 x 50 mm; eluents: water / acetonitrile, 0.1% formic acid
property: RP-LC retention time (s)

- compound: "FC1(c2nc(Cc3ccccc3)no2)CCN(Cc2ccoc2)CC1"
  assay-result: 693
- compound: "O=C(NCc1cccs1)c1ccc2c(c1)N(C(=O)c1ccc(F)cc1)CC2"
  assay-result: 880
- compound: "Cc1ccc(NC(=O)c2[nH]c3cc(C)sc3c2CN2CCOCC2)c(Cl)c1"
  assay-result: 731
- compound: "O=C(NCC1COc2ccccc2O1)C(=O)N1CCCCC1 (centres undefined)"
  assay-result: 757
- compound: "Cc1ccc2c(c1)N(C(=O)c1ccc(C#N)cc1)CCO2"
  assay-result: 925
- compound: "CCn1ccc(C(=O)N2C[C@@H]3CCCN4CCC[C@@H]([C@H]34)[C@H]2CCCC(=O)N2CCOCC2)n1"
  assay-result: 580
- compound: "CCn1cc(CN2CCCC(Cn3cc(COC)nn3)C2)c2ccccc21 (centres undefined)"
  assay-result: 565
- compound: "CC(C)n1cnnc1CC1CN(C(=O)Nc2ccc(Cl)cc2C(F)(F)F)C1"
  assay-result: 693
- compound: "Cc1ccccc1NC(=O)Cn1nc(N2CCC(C)CC2)c2ccccc2c1=O"
  assay-result: 1110
- compound: "O=C(NCC1CCCO1)c1ccc(Cn2nc(N3CCN(c4ccccc4)CC3)ccc2=O)o1 (centres undefined)"
  assay-result: 737
- compound: "COCc1cc(=O)n(CC(=O)Nc2cc(C(F)(F)F)ccc2Cl)c(N2CCOCC2)n1"
  assay-result: 1060
- compound: "CC(C)c1ccc(S(=O)(=O)N2CCCC2c2nc(-c3cccc(Cl)c3)no2)cc1 (centres undefined)"
  assay-result: 1350
- compound: "CCOc1ccc(NC(=O)C2CC(=O)N(CCc3c[nH]c4ccc(Cl)cc34)C2)cc1 (centres undefined)"
  assay-result: 870
- compound: "Cc1ccc(CN2CCN(C3CCN(S(=O)(=O)c4ccc(F)c(F)c4)CC3)C(=O)C2=O)cc1"
  assay-result: 880
- compound: "CC(C)c1noc(-c2ccnc(-n3cnc(C(=O)NC(C)c4ccccc4)c3)c2)n1 (centres undefined)"
  assay-result: 1000
- compound: "COc1ccc2c(C)c(C(=O)NCCn3ncccc3=O)oc2c1"
  assay-result: 669
- compound: "N#Cc1cccc(CN2CCC(F)(F)C(CO)C2)c1 (centres undefined)"
  assay-result: 551
- compound: "CS(=O)(=O)N1CCCc2cc(C(=O)N3CCCCCC3)ccc21"
  assay-result: 800
- compound: "O=C(Nc1ccc(C(=O)N2CCC(C(=O)NC3CCCCCC3)CC2)cc1)c1ccccc1Cl"
  assay-result: 839
- compound: "Cc1ccc(NC(=O)C2CCN(S(=O)(=O)c3cc(C(=O)N(C)C)cs3)CC2)c(C)c1"
  assay-result: 804
- compound: "CC1=C(c2ccc(Cl)cc2)S(=O)(=O)N=C1N1CCCN(C(=O)c2cccs2)CC1"
  assay-result: 840
- compound: "CCS(=O)(=O)N1CCCN(C(=O)NC)CC1"
  assay-result: 566
- compound: "Cc1nc(N2CCCC2)c2c(C(=O)NCCCc3ccccc3)c(C)oc2n1"
  assay-result: 754
- compound: "O=C(O)c1ccc(N2CCOCC2)c(NC(=O)c2ccc(Br)cc2)c1"
  assay-result: 828
- compound: "COCC1CN(C(=O)c2ccco2)CCC1(F)F (centres undefined)"
  assay-result: 759
- compound: "O=C(Cn1ccc2ccc(N3CCOCC3)nc21)NCc1cccc(Cl)c1"
  assay-result: 909
- compound: "COC(=O)C1=CN(C2CC2)c2cc(N3CCN(c4ccccc4OC)CC3)c(F)cc2S1(=O)=O"
  assay-result: 904
- compound: "Cn1ccc(CN2CCC(Cc3ccccc3)CC2)cc1=O"
  assay-result: 611
- compound: "Cc1ccc(-n2c(N3CCC(C(=O)NC4CC4)CC3)nc3ccsc3c2=O)cc1"
  assay-result: 719
- compound: "CCc1noc2nc(C)n(CC(=O)NCc3ccccc3F)c(=O)c12"
  assay-result: 788
- compound: "CCn1c(=O)c(N2CCN(C(=O)Nc3ccc(F)cc3F)CC2)nc2ccccc21"
  assay-result: 895
- compound: "Cc1ccc(CNC(=O)C2CCCN(c3nc4ccccc4n(Cc4ccccc4)c3=O)C2)o1 (centres undefined)"
  assay-result: 1150
- compound: "CN(C(=O)CN1C(=O)NC2(CCCCC2)C1=O)c1ccccc1"
  assay-result: 740
- compound: "Cn1cc(CCN2CCN(C(=O)c3ccc(Br)cc3)CC2)c2cccnc21"
  assay-result: 620
- compound: "O=S(=O)(c1cccc(-c2nc(-c3ccccc3)no2)c1)N1CCN(C2CCCCC2)CC1"
  assay-result: 840
- compound: "COc1cccc(NC(=O)Cn2nc3cc(C)nc(-c4ccccc4)n3c2=O)c1"
  assay-result: 803
- compound: "CCOc1cc(C)c(C)cc1S(=O)(=O)n1cc(C)nc1CC"
  assay-result: 712
- compound: "CC1(C(=O)NC2CCN(c3ccc(=O)n(CCOc4ccccc4)n3)C2)CCCCC1 (centres undefined)"
  assay-result: 906
- compound: "COCCN(Cc1ccncc1)C(=O)c1ccccc1SC"
  assay-result: 557
